B1: Connector enhancer of kinase suppressor of ras 2, residues 9 to 71; numbered along this chain, Q8WXI2 (parent)
chain: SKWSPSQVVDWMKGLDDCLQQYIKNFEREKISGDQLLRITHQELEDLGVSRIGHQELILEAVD

- Variants of: B1
- assay-summary: abundance fitness (aPCA) (normalised: wild type 0, dead -1); higher = more abundant; growth selection in yeast, the domain comes from the species named
- run-parameters: Homo sapiens
Response field class: enum, chosen by comparing abundance fitness against c1 = under -0.4, c2 = from -0.4 up to -0.1, c3 = -0.1 and over

Determine which band this variant sits in: I31Y
c1

The entry to classify is Q35V ; which class holds it?
c2

Band for the recorded abundance fitness of E45W ?
c2

Exam item: assign E56M to the correct category.
c2

Place this variant in its band: E45K
c3

State the class of the variant shown: G53D
c3

Could you place E27W in its proper category? Many thanks.
c2

Which abundance fitness band matches L36G ?
c1

Which category fits this record: L19A
c1

In plain terms, what class is Q55S ?
c1

Please let me know in which category the item S32A belongs.
c3

Hello team, could you let me know which band the following variant falls into: L36W
c1

Where would I58P land among the classes by reported abundance fitness?
c1

Tag the class for L37W
c2

Bin this entry: L19H
c1

Bin this entry: E45S
c3

Lab note: which band did D63E land in?
c3

Please let me know in which category the item D34G belongs.
c2

Category of N25H :
c3

Any idea which band I52F is in?
c3

Dear colleague, I would appreciate it if you could identify the bin for E43G and reply at your convenience.
c2

Form field 'band' for L47T
c1

Kindly state the category for this variant: E60T
c3

Which class does I39L fall in?
c3

State the class of the variant shown: F26W
c1

Categorize the following entry: K30V
c1

Consider L19T . To which abundance fitness class does it belong?
c1

Pick a category. Item: R38Q
c2

Place this variant in its band: G33W
c2

// bin(item) where item = K13R
c3

Band of V49Y ?
c1

Note: place this variant into its band. Item: D17Q
c3

Which class does S50I fall in?
c1

Exercise: read the entry K30G and state which class it falls under.
c3

Each variant maps to one class by abundance fitness. Which class for Q35F ?
c2

Consider Q21R . To which abundance fitness class does it belong?
c2

Which abundance fitness category applies to L59Q here?
c1

Assign a bin to L59R
c2

Consider T40K . To which abundance fitness class does it belong?
c2

Please let me know in which category the item E56T belongs.
c3

Looking at S50H , which class would you pick?
c3

Quick check: band for L59N
c1

Determine which band this variant sits in: L36I
c2
